Origin of the recorded values: paper PMC6789118

Target: Vrg4 Y281F variant (Saccharomyces cerevisiae, UniProt P40107, Y281F)
Construct: GFP (cleaved yes)
Sequence (P40107 whole entry Y281F): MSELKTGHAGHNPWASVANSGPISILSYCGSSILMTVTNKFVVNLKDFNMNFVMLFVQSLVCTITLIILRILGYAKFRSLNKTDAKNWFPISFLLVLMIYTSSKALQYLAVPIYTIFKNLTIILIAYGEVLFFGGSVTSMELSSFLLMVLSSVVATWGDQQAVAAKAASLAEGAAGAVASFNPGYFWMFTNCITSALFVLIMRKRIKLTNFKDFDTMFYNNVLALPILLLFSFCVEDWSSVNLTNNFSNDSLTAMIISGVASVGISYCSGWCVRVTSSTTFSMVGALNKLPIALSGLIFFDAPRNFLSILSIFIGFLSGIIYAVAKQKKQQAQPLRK
Assay: IC50 competition of 3H-GMP uptake into proteoliposomes, Y281F variant
Text: Vrg4 was reconstituted into liposomes made from yeast polar lipids using the dilution method into preformed lipid vesicles. Chloroform was removed from yeast polar lipids (Avanti polar lipids) through the use of a rotary evaporator to obtain a thin film. […] The amount of protein (both wild-type and mutant variants) reconstituted into the lipids was quantified by SDS–PAGE and densitometry. […]
outcomeMeasure: IC50
Please provide the amount together with its unit, number first.

I would be grateful if you could share the reported IC50 for Nc1nc2c(ncn2[C@@H]2O[C@H](COP(=O)(O)O)[C@@H](O)[C@H]2O)c(=O)[nH]1 [GMP, guanine monophosphate] .
23 µM

====

biological target: Vrg4 N221A variant (Saccharomyces cerevisiae, UniProt P40107, N221A); construct: GFP (cleaved yes); experiment: IC50 competition of 3H-GMP uptake into proteoliposomes, N221A variant
Sequence (P40107 whole entry N221A): as the sequence (P40107 whole entry Y281F) above, with N221A, F281Y counted along it
outcomeMeasure: IC50 (µM)
Reply numerically in µM, unit not repeated.

Would you kindly share the measured IC50 for Nc1nc2c(ncn2[C@@H]2O[C@H](COP(=O)(O)O)[C@@H](O)[C@H]2O)c(=O)[nH]1 [GMP, guanine monophosphate] ?
22

Then this compound: Nc1ncnc2c1ncn2[C@@H]1O[C@H](COP(=O)(O)O)[C@@H](O)[C@H]1O
27
